experiment: Inhibition of yeast alpha-glucosidase using p-nitrophenyl glycoside as substrate preincubated with enzyme for 30 mins followed by substrate addition for 60 mins by spectrophotometric analysis; design: species or system Saccharomyces cerevisiae
assay-readout: IC50
Lab note: write values as number then unit, every time.

O=C(CSc1nnc2c(n1)[nH]c1ccccc12)c1cccc(O)c1 has a reported IC50 of 2.5 µM

###

molecular target: UniProt P49841
Sequence (P49841 whole entry): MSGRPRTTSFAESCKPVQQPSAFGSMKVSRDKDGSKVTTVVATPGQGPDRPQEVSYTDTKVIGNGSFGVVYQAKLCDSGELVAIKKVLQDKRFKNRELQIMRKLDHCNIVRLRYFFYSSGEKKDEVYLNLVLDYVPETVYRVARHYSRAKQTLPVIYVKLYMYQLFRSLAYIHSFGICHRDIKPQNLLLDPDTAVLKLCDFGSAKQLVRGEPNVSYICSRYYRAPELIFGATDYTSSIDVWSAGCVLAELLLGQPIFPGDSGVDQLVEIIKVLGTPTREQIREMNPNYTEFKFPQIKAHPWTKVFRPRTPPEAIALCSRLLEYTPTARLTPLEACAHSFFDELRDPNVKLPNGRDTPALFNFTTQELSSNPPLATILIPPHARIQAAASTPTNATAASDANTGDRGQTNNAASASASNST
assay-readout: pIC50
Lab note — pIC50 values are minus log10 of concentrations in M.

# value of pIC50, UniProt P49841, item O=C1Nc2ccc(NC(=O)c3ccccc3)cc2C1=Cc1ccc(O)cc1 (mixture of isomers) = 5.36

###

tested on: Saccharomyces cerevisiae; test: Inhibition of yeast alpha-glucosidase at 100 uM
Each entry below carries its reported inhibition.
Just the number in %, nothing appended.

Field: example entries. Status: answers known.
- O=C1Nc2ccc([N+](=O)[O-])cc2C1=Cc1cccnc1: -7.99
- O=C1Nc2ccccc2C1=Cc1cccs1 (mixture of isomers): -1.25
- COC(=O)Nc1ccc2c(c1)C(=Cc1ccc([N+](=O)[O-])cc1)C(=O)N2 (mixture of isomers): 103

N#CCC1(O)C(=O)Nc2ccc(NC(=O)c3ccccc3)cc21 (stereo not given) has a reported inhibition of 29.2

O=C1Nc2ccc(Br)cc2C1=Cc1cccnc1 has a reported inhibition of 10.7
